Listed here are molecules together with their documented MRT.
# procedureDetails: in vivo
# assayContext: male, SD, rat, iv, MRT, SD rat, i.v. 2 mg 25/kg, Rat 1
Response body: numeric value in h, unit text excluded.

[in] Item O=C(NC(=O)c1c(O)cccc1O)NC1c2ccccc2-c2ccccc21 [Compound 1] : provide MRT
[out] 0.94

Others:
[in] Item CCCCCCCC(=O)Oc1cccc(O)c1C(=O)NC(=O)NC1c2ccccc2-c2ccccc21 [Compound 25] : provide MRT
[out] 2.42

* * *

Listed here are compounds together with their documented EC50.
# System: HCV Con1-1b replicon
# procedureDetails: HCV Con1-1b subgenomic replicon assay
# Format: cell-based
# assayContext: Hepatitis C virus; Table 4; read-out: Anti-HCV Activity EC50 ± SD Replicon Assay Con1-1b

Recorded results for 4 compounds are shown here.
[in] Item O=C(NC(=O)c1c(O)cccc1OC(=O)C1CC1)NC1c2ccccc2-c2ccccc21 [Compound 21] : provide EC50
[out] 850 nM

[in] Item CCCC(=O)Oc1cccc(OC(=O)CCC)c1C(=O)NC(=O)NC1c2ccccc2-c2ccccc21 [Compound 28] : provide EC50
[out] 620 nM

[in] Item CC(C)(C)C(=O)Oc1cccc(O)c1C(=O)NC(=O)NC1c2ccccc2-c2ccccc21 [Compound 23] : provide EC50
[out] 830 nM

[in] Item CC(=O)Oc1cccc(O)c1C(=O)NC(=O)NC1c2ccccc2-c2ccccc21 [Compound 14] : provide EC50
[out] 800 nM

Others:
[in] Item O=C(NC(=O)c1c(O)cccc1O)NC1c2ccccc2-c2ccccc21 [Compound 1] : provide EC50
[out] 780 nM

[in] Item CC(C)(C)C(=O)Oc1cccc(OC(=O)C(C)(C)C)c1C(=O)NC(=O)NC1c2ccccc2-c2ccccc21 [Compound 31] : provide EC50
[out] 560 nM

[in] Item O=C(NC(=O)c1c(O)cccc1OC(=O)c1ccccc1)NC1c2ccccc2-c2ccccc21 [Compound 18] : provide EC50
[out] 1030 nM

* * *

# procedureDetails: in vivo
# assayContext: male, SD, rat, iv, Cmax, SD rat, i.v. 2 mg 25/kg, Rat 3
readout: Cmax (µg/mL)
Response body: numeric value in µg/mL, unit text excluded.

[in] Item `CCCCCCCC(=O)Oc1cccc(O)c1C(=O)NC(=O)NC1c2ccccc2-c2ccccc21` : provide Cmax
[out] 0.0275

--- query ---
[in] Item `O=C(NC(=O)c1c(O)cccc1O)NC1c2ccccc2-c2ccccc21` : provide Cmax
[out] 1.11

* * *

# procedureDetails: in vivo
# assayContext: male, SD, rat, iv, MRT, SD rats, i.v. 2 mg 25/kg, Mean ± SD (Rat 1 and 3)
readout: MRT (h)
Response body: numeric value in h, unit text excluded.

[in] Item `CCCCCCCC(=O)Oc1cccc(O)c1C(=O)NC(=O)NC1c2ccccc2-c2ccccc21` : provide MRT
[out] 1.3

Others:
[in] Item `O=C(NC(=O)c1c(O)cccc1O)NC1c2ccccc2-c2ccccc21` : provide MRT
[out] 0.75

* * *

Listed here are molecules together with their documented AUC(0-inf).
# procedureDetails: in vivo
# assayContext: male, SD, rat, iv, AUC0-∞, SD rat, i.v. 2 mg 25/kg, Rat 1
Response body: numeric value in ng·h/mL, unit text excluded.

[in] Item `CCCCCCCC(=O)Oc1cccc(O)c1C(=O)NC(=O)NC1c2ccccc2-c2ccccc21` : provide AUC(0-inf)
[out] 5.66

Others:
[in] Item `O=C(NC(=O)c1c(O)cccc1O)NC1c2ccccc2-c2ccccc21` : provide AUC(0-inf)
[out] 335

* * *

Listed here are molecules together with their documented Cmax.
# procedureDetails: in vivo
# assayContext: male, SD, rat, iv, Cmax, SD rat, i.v. 2 mg 25/kg, Rat 1
Could you give the number and then its unit, please?

[in] Item O=C(NC(=O)c1c(O)cccc1O)NC1c2ccccc2-c2ccccc21 [Compound 1] : provide Cmax
[out] 698 ng/mL

--- query ---
[in] Item CCCCCCCC(=O)Oc1cccc(O)c1C(=O)NC(=O)NC1c2ccccc2-c2ccccc21 [Compound 25] : provide Cmax
[out] 13.4 ng/mL

* * *

# procedureDetails: Cell proliferation (cytotoxicity) assay, WST-1
# Format: cell-based
# assayContext: human, Huh 7.5.1 cells, Table 4, 48 h
Listed here are compounds together with their documented CC50 at 48 h.

[in] Item CCCC(=O)Oc1cccc(O)c1C(=O)NC(=O)NC1c2ccccc2-c2ccccc21 [Compound 20] : provide CC50 at 48 h
[out] > 16 µM

[in] Item CCC(=O)Oc1cccc(OC(=O)CC)c1C(=O)NC(=O)NC1c2ccccc2-c2ccccc21 [Compound 27] : provide CC50 at 48 h
[out] > 16 µM

[in] Item O=C(NC(=O)c1c(O)cccc1OC(=O)C1CC1)NC1c2ccccc2-c2ccccc21 [Compound 21] : provide CC50 at 48 h
[out] > 16 µM

* * *

# Tested on: T spleen cells
# procedureDetails: Spleen cells proliferation inhibition assay (MTT), T spleen cells
# Type: cell-based, mouse (ICR)
# assayContext: mouse spleen cells, 72 h, read-out: T Spleen Cells IC50 ± SD
readout: pIC50
Note on units: pIC50 is unitless, being -log10 of a concentration expressed in mol/L.

[in] Item O=C(NC(=O)c1c(O)cccc1O)NC1c2ccccc2-c2ccccc21 [Compound 1] : provide pIC50
[out] 4.48

* * *

# procedureDetails: in vivo
# assayContext: male, SD, rat, iv, t1/2, SD rat, i.v. 2 mg 25/kg, Rat 3
readout: half-life (min)
Response body: numeric value in min, unit text excluded.

[in] Item `O=C(NC(=O)c1c(O)cccc1O)NC1c2ccccc2-c2ccccc21` : provide half-life
[out] 72.6

--- query ---
[in] Item `CCCCCCCC(=O)Oc1cccc(O)c1C(=O)NC(=O)NC1c2ccccc2-c2ccccc21` : provide half-life
[out] 7.2

* * *

# procedureDetails: in vivo
# assayContext: male, SD, rat, iv, MRT, SD rat, i.v. 2 mg 25/kg, Rat 3
readout: MRT (min)
Response body: numeric value in min, unit text excluded.

[in] Item `O=C(NC(=O)c1c(O)cccc1O)NC1c2ccccc2-c2ccccc21` : provide MRT
[out] 33

--- query ---
[in] Item `CCCCCCCC(=O)Oc1cccc(O)c1C(=O)NC(=O)NC1c2ccccc2-c2ccccc21` : provide MRT
[out] 12.6

* * *

readout: melting point

[in] Item `CCCC(=O)Oc1cccc(O)c1C(=O)NC(=O)NC1c2ccccc2-c2ccccc21` : provide melting point
[out] 204 to 210 °C

[in] Item `O=C(NC(=O)c1c(O)cccc1OC(=O)C1CC1)NC1c2ccccc2-c2ccccc21` : provide melting point
[out] 194 to 199 °C

[in] Item `CCCCC(=O)Oc1cccc(O)c1C(=O)NC(=O)NC1c2ccccc2-c2ccccc21` : provide melting point
[out] 193 to 199 °C

Others:
[in] Item `O=C(NC(=O)c1c(O)cccc1OC(=O)c1ccccc1)NC1c2ccccc2-c2ccccc21` : provide melting point
[out] 211 to 214 °C

* * *

Listed here are molecules together with their documented melting point.

[in] Item CCCCCCCC(=O)Oc1cccc(OC(=O)CCCCCCC)c1C(=O)NC(=O)NC1c2ccccc2-c2ccccc21 [Compound 33] : provide melting point
[out] 152 to 153 °C

Others:
[in] Item CCCCCCCC(=O)Oc1cccc(O)c1C(=O)NC(=O)NC1c2ccccc2-c2ccccc21 [Compound 25] : provide melting point
[out] 184 to 189 °C

[in] Item CCCCC(=O)Oc1cccc(OC(=O)CCCC)c1C(=O)NC(=O)NC1c2ccccc2-c2ccccc21 [Compound 30] : provide melting point
[out] 172 to 174 °C

[in] Item CCCC(=O)Oc1cccc(OC(=O)CCC)c1C(=O)NC(=O)NC1c2ccccc2-c2ccccc21 [Compound 28] : provide melting point
[out] 186 to 188 °C

[in] Item O=C(NC(=O)c1c(OC(=O)c2ccccc2)cccc1OC(=O)c1ccccc1)NC1c2ccccc2-c2ccccc21 [Compound 26] : provide melting point
[out] 211 to 213 °C

[in] Item CC(C)(C)C(=O)Oc1cccc(OC(=O)C(C)(C)C)c1C(=O)NC(=O)NC1c2ccccc2-c2ccccc21 [Compound 31] : provide melting point
[out] 202 to 205 °C

[in] Item CCC(=O)Oc1cccc(O)c1C(=O)NC(=O)NC1c2ccccc2-c2ccccc21 [Compound 19] : provide melting point
[out] 206 to 216 °C

[in] Item CCCCCC(=O)Oc1cccc(O)c1C(=O)NC(=O)NC1c2ccccc2-c2ccccc21 [Compound 24] : provide melting point
[out] 200 to 222 °C
